Molecular target: ScLsb3
Test: SPOT peptide array binding signal intensity (averaged, normalized) (arbitrary units (background-subtracted, floor 0; scale differs between SH3 domains)); higher = stronger binding of the SH3 domain to the peptide
Quantity measured: SPOT peptide array binding signal intensity
Respond using a number only.

In the examples that follow, each entry is paired with its recorded SPOT peptide array binding signal intensity.
- Binder: "RKRAPTPPAPSRSEK"
  Meas value: 1010
- Binder: "KRRAPPPVPKKPSSR"
  Meas value: 4730
- Binder: "RLSRLLLSLPPESFT"
  Meas value: 127
- Binder: "SRYRRPLTLLLLKPF"
  Meas value: 107
- Binder: "MARRRLPDRPPNGIG"
  Meas value: 3700

## Input Specify reported SPOT peptide array binding signal intensity for the binder shown: NMLSRPRLAKLPSIR
## Output 570

## Input Specify reported SPOT peptide array binding signal intensity for the binder shown: RSVKRPRRAPRPVVS
## Output 3170

## Input Specify reported SPOT peptide array binding signal intensity for the binder shown: PKRRAPPPVPKKPSS
## Output 4240

## Input Specify reported SPOT peptide array binding signal intensity for the binder shown: TKFRISLGLPVGAIM
## Output 329
